Biological target: MAGI1_2, Q96QZ7
Sequence (Q96QZ7 456-580): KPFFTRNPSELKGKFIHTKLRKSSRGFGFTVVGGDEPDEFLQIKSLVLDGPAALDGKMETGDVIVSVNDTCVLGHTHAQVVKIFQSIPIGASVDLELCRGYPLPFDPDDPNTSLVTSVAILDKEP
Assay: holdup assay
Set-up: key: below the threshold = too weak to quantify, mostly under pKd 3.1 to 4
Conditions: plain residues with an end cap or a label only (N-terminal biotin on a linker: ado-ado)
parameter-measured: pKd

# binder, reported-value
data = [
    ("LRSPRTPSEV [OR10G3, Q8NGC4]", 3.92),
    ("GSGAVEMESV [AQP6, Q13520]", "below the threshold"),
    ("KKMPSIESDV [GRIN2A, Q12879]", "below the threshold"),
    ("SNAGNTATKA [NOSTRIN, Q8IVI9]", "below the threshold"),
]
